# PROTOCOL DETAILS: Metabolic stability in human hepatic microsome
# Format: in vitro ADME
# CONDITION DESCRIPTION: microsomes, pH 7.4; human hepatic microsome, NADPH(+); read-out: CL NADPH(+)
Starred links: 1 amine or outer side, 2 acyl side, 3 side chain; linkers in the order of their positions; H or OH if unused. Positions of bridges follow the written chain, without caps; N, C: chain ends. Non-standard residues stand in square brackets, D forms with d. Residues, ends and D or L forms follow the SMILES beside them. *: point of attachment. Phe(4-(CH2)5CO) = O=C([C@H](Cc1ccc(CCCCCC(=O)[*:3])cc1)N[*:1])[*:2]; NMeF = CN[C@@H](Cc1ccccc1)C(=O)O; NMeL = CN[C@@H](CC(C)C)C(=O)O; NMeV = CN[C@H](C(=O)O)C(C)C; Piperidide = C1CCN(*)CC1; Sar = CNCC(=O)O; tBu = CC(C)(C)*

MOLECULE	microsomal CLint at 1 uM, µL/min/mg
CC[C@H](C)[C@@H]1NC(=O)[C@H](Cc2ccccc2)N(C)C(=O)[C@H](CC(C)C)N(C)C(=O)[C@H](CC(C)C)NC(=O)[C@H](C)NC(=O)[C@H](C(C)C)N(C)C(=O)CNC(=O)CCCCCc2ccc(cc2)C[C@@H](C(=O)N2CCCCC2)NC(=O)[C@H](CC(C)C)N(C)C(=O)[C@H]([C@@H](C)O)NC(=O)[C@@H]2CCCN2C(=O)[C@H](Cc2ccccc2)NC1=O [DP-902] (G[NMeV]AL[NMeL][NMeF]IFPT[NMeL][Phe(4-(CH2)5CO)]-Piperidide; lactam N-12)	121
CC[C@H](C)[C@@H]1NC(=O)[C@H](Cc2ccccc2)N(C)C(=O)CCCCCc2ccc(cc2)C[C@@H](C(=O)N2CCCCC2)NC(=O)[C@H](C(C)C)N(C)C(=O)[C@H](Cc2ccccc2)N(C)C(=O)[C@H](COC(C)(C)C)NC(=O)[C@H](CC(C)C)N(C)C(=O)CN(C)C(=O)[C@H]([C@@H](C)O)NC(=O)[C@H](CC(C)C)N(C)C1=O [DP-861] ([NMeF]I[NMeL]T[Sar][NMeL]S(tBu)[NMeF][NMeV][Phe(4-(CH2)5CO)]-Piperidide; lactam N-10)	320

====

# PROTOCOL DETAILS: Metabolic stability in human hepatic microsome
# Type: in vitro ADME
# CONDITION DESCRIPTION: microsomes, pH 7.4; human hepatic microsome, NADPH(+); read-out: CL NADPH(+)
Positions of bridges follow the written chain, without caps; N, C: chain ends. Non-standard residues stand in square brackets, D forms with d. Residues, ends and D or L forms follow the SMILES beside them. *: point of attachment. NMeF = CN[C@@H](Cc1ccccc1)C(=O)O; NMeL = CN[C@@H](CC(C)C)C(=O)O; NMeV = CN[C@H](C(=O)O)C(C)C; NMeA = CN[C@@H](C)C(=O)O; Piperidide = C1CCN(*)CC1; dNMeA = CN[C@H](C)C(=O)O
RESULT TYPE: microsomal CLint at 1 uM (µL/min/mg)

COMPOUND	VALUE OBSERVED
CC(C)C[C@H]1C(=O)N[C@@H](C)C(=O)N(C)[C@@H](C)C(=O)N[C@H](C(=O)N(C)[C@@H](Cc2ccccc2)C(=O)N[C@@H](C)C(=O)N2CCCCC2)CC(=O)N(C)[C@H](C)C(=O)N(C)[C@@H](C(C)C)C(=O)N(C)[C@@H](C)C(=O)N[C@@H](Cc2ccccc2)C(=O)N[C@@H]([C@@H](C)O)C(=O)N(C)[C@@H](C)C(=O)N1C [DP-354] ([dNMeA][NMeV][NMeA]FT[NMeA][NMeL]A[NMeA]D[NMeF]A-Piperidide; lactam N-10)	8
